Data origin: PubChem BioAssay (NCATS)

Test system: 7G8
EXPERIMENTAL PROTOCOL: qHTS profiling for inhibitors of Plasmodium falciparum proliferation (AID 504749); note: nearly all actives have a fitted effect of over 60% in size
SETUP CONDITIONS: P. falciparum in erythrocytes, SYBR Green DNA, 72 h; series mostly up to 28.7 µM
Inconclusive results are not listed. Activity calls are given as the source filed them. Calls come from the whole dose curve; as a rule, active = well fitted inhibition curve with a large enough effect; inconclusive = small, poorly fitted or top-dose-only effect; inactive = flat fitted curve, though single readings scatter.
The categories you may choose from are Yes for active, No for inactive

Use these answered entries as a reference point.
molecule="OCC(O)[C@H]1O[C@@H]2O[C@H](C(Cl)(Cl)Cl)O[C@@H]2[C@H]1O (stereo partly drawn)" class_label=No
molecule="CC1(C)S[C@@H]2[C@H](N)C(=O)N2C1C(=O)O (stereo partly drawn)" class_label=No

# next molecule below
[in] Record request — test call for COC(C(=O)C(O)C(C)O)C1Cc2cc3cc(OC4CC(OC5CC(O)C(OC)C(C)O5)C(OC(C)=O)C(C)O4)c(C)c(O)c3c(O)c2C(=O)C1OC1CC(OC2CC(OC3CC(C)(O)C(OC(C)=O)C(C)O3)C(O)C(C)O2)C(O)C(C)O1 (stereo not drawn)
[out] Yes

----------
Test system: CP237
EXPERIMENTAL PROTOCOL: qHTS profiling for inhibitors of Plasmodium falciparum proliferation (AID 504749); note: nearly all actives have a fitted effect of over 60% in size
SETUP CONDITIONS: P. falciparum in erythrocytes, SYBR Green DNA, 72 h; series mostly up to 28.7 µM
Results filed as inconclusive are left out. The source made the active and inactive calls. Calls come from the whole dose curve; as a rule, active = well fitted inhibition curve with a large enough effect; inconclusive = small, poorly fitted or top-dose-only effect; inactive = flat fitted curve, though single readings scatter.
The categories you may choose from are active, inactive

compound=C=C1Nc2ccccc2C(=O)N1c1ccccc1C class_label=inactive
compound="COC(C(=O)C(O)C(C)O)C1Cc2cc3cc(OC4CC(OC5CC(O)C(OC)C(C)O5)C(OC(C)=O)C(C)O4)c(C)c(O)c3c(O)c2C(=O)C1OC1CC(OC2CC(OC3CC(C)(O)C(OC(C)=O)C(C)O3)C(O)C(C)O2)C(O)C(C)O1 (stereo not given)" class_label=active
compound="COC(=O)C1C(OC(=O)c2ccccc2)CC2CCC1N2C (stereo not given)" class_label=inactive
compound="CCC/C=C/C=C/C(=O)OC1/C(=C/C(=O)OC)CC2CC(C(C)O)OC(=O)CC(O)CC3CC(OC(C)=O)C(C)(C)C(O)(CC4C/C(=C/C(=O)OC)CC(/C=C\\C(C)(C)C1(O)O2)O4)O3 (stereo not given)" class_label=active
compound=CN(C)[C@@H](Cc1ccccc1)c1ccccc1 class_label=active
compound="CC(=O)Oc1ccc2c3c1OC1[C@@H](OC(C)=O)C=C[C@H]4[C@H](C2)N(C)CC[C@]314 (stereo not given in full)" class_label=inactive

# next compound below
[in] Record request — test call for CC(C)=CC1C(C(=O)OCc2coc(Cc3ccccc3)c2)C1(C)C (stereo not given)
[out] inactive

----------
Test system: N140
EXPERIMENTAL PROTOCOL: qHTS profiling for inhibitors of Plasmodium falciparum proliferation (AID 504749); note: nearly all actives have a fitted effect of over 60% in size; note: potency is the fitted concentration of half-maximal effect
SETUP CONDITIONS: P. falciparum in erythrocytes, SYBR Green DNA, 72 h; series mostly up to 28.7 µM
Records with an inconclusive call do not appear. The source made the active and inactive calls. The call rests on the fitted dose curve; in most records, active means well fitted inhibition curve with a large enough effect; inconclusive means small, poorly fitted or top-dose-only effect; inactive means flat fitted curve, though single readings scatter.
OUTCOME MEASURE: Potency

Sample records with Potency:
compound="C[C@]12CCC3C(CCC4=C(Cl)C(=O)CC[C@@]43C)C1CCC2O (some centres undefined)" result=inactive
compound="CCCC(C)C1(CC)C(=O)NC(=S)NC1=O (centres undefined)" result=inactive
compound="CC1OC(O[C@H]2C[C@@H](O)[C@]3(CO)[C@@H]4C(CC[C@]3(O)C2)[C@@]2(O)CC[C@H](C3=CC(=O)OC3)[C@@]2(C)C[C@H]4O)C(O)C(O)C1O (some centres undefined)" result=inactive
compound="CC(=O)[C@H]1CC[C@H]2C3CC[C@H]4C[C@H](O)CC[C@]4(C)C3CC[C@]12C (some centres undefined)" result=inactive

[in] Respond only with Potency recorded for "CCN(CC)C(=O)N[C@@H]1C=C2c3cccc4[nH]cc(c34)C[C@H]2N(C)C1"
[out] 12600 nM (active)

[in] Respond only with Potency recorded for "C#CCN1CC(=O)N(COC(=O)[C@@H]2[C@@H](C=C(C)C)C2(C)C)C1=O"
[out] inactive

[in] Respond only with Potency recorded for O=C1CC2OCC=C3CN4CCC56c7ccccc7N1C5[C@H]2[C@H]3C[C@H]46 (some centres undefined) (tested in a mixture with another compound)
[out] inactive

[in] Respond only with Potency recorded for CCCCCc1cc(O)c2c(c1)OC(C)(C)C1CC=C(C)CC21 (centres undefined)
[out] 1120 nM (active)

[in] Respond only with Potency recorded for C#CC1(O)C=CC2C3CCC4=CC(=O)CCC4C3CCC21CC (centres undefined)
[out] inactive

[in] Respond only with Potency recorded for COC(C(=O)C(O)C(C)O)C1Cc2cc3cc(OC4CC(OC5CC(O)C(OC)C(C)O5)C(OC(C)=O)C(C)O4)c(C)c(O)c3c(O)c2C(=O)C1OC1CC(OC2CC(OC3CC(C)(O)C(OC(C)=O)C(C)O3)C(O)C(C)O2)C(O)C(C)O1 (centres undefined)
[out] 1000 nM (active)

[in] Respond only with Potency recorded for C=CC[N+]1(C)CCC23c4c5ccc(O)c4O[C@H]2C(=O)CC[C@@]3(O)C1C5 (some centres undefined)
[out] inactive

[in] Respond only with Potency recorded for "C[C@@H](N)[C@@H](O)c1ccc(O)c(O)c1"
[out] inactive

[in] Respond only with Potency recorded for "CC1(C)[C@@H](C=C(Cl)Cl)[C@@H]1C(=O)OCc1c(F)c(F)cc(F)c1F"
[out] inactive

[in] Respond only with Potency recorded for CCCCCCC(=O)O[C@H]1CC[C@H]2[C@@H]3CCC4CC(=O)C=C(C)[C@]4(C)[C@H]3CC[C@]12C (some centres undefined)
[out] inactive

[in] Respond only with Potency recorded for CN(C)C1C(=O)C(C(N)=O)C(=O)C2(O)C(=O)C3C(=O)c4c(O)cccc4C(C)(O)C3C(O)C12 (centres undefined)
[out] inactive

[in] Respond only with Potency recorded for "Nc1nc(O)c(-c2ccccc2)o1"
[out] inactive

[in] Respond only with Potency recorded for CC(=O)O[C@H]1C[C@H](O[C@H]2[C@@H](O)CC(O[C@H]3[C@@H](O)C[C@H](O[C@H]4CC[C@@]5(C)[C@H](CC[C@@H]6[C@@H]5CC[C@]5(C)[C@@H](C7=CC(=O)OC7)CC[C@]65O)C4)O[C@@H]3C)O[C@@H]2C)O[C@H](C)[C@H]1O[C@@H]1O[C@H](CO)[C@@H](O)[C@H](O)[C@H]1O (some centres undefined)
[out] inactive

[in] Respond only with Potency recorded for CC(CO)NC(=O)C1C=C2c3cccc4[nH]cc(c34)CC2N(C)C1 (centres undefined)
[out] inactive

[in] Respond only with Potency recorded for CC(Cc1ccccc1)N(C)C (centres undefined)
[out] inactive
